Structures can show the parent of a compound that is named as a salt.
property_name: melting point

{"columns": ["compound", "value_reported"],
 "data": [
  ["Nc1cccc(-c2ccc(CCNC3C4CCCC3CN(Cc3ccccc3)C4)cc2)n1 (stereo not shown) (as salt: hydrochloride)", "190 °C (dec.)"]
]}

**Q:** Any idea what its melting point is? The compound is Nc1cccc(-c2ccc(CCN3CCN(C(=O)C(N)Cc4ccccc4)CC3)cc2)n1 (stereo not shown) (as salt: hydrochloride)
**A:** 230 °C (dec.)

**Q:** Any idea what its melting point is? The compound is Nc1cccc(-c2ccc(CCN3CCN(c4nnnn4-c4ccc(F)cc4)CC3)cc2)n1
**A:** 185 to 187 °C

**Q:** Any idea what its melting point is? The compound is Cc1cccc(N2CCN(CCc3ccc(-c4cccc(N)n4)cc3)CC2)c1
**A:** 158 to 160 °C

###

Structures can show the parent of a compound that is named as a salt.
# maps each entry to its melting point

Example results:
{"columns": ["compound", "property_name", "value_reported"],
 "data": [
  ["CC(C)CN1CCN(CCc2ccc(-c3cccc(N)n3)cc2)CC1", "melting point", "85 to 88 °C"],
  ["Nc1cccc(-c2ccc(CCNC3Cc4ccccc4C3)cc2)n1 (as salt: hydrochloride)", "melting point", "60 to 70 °C (dec.)"],
  ["Nc1cccc(-c2ccc(CCN3CCN(C(=O)C4CCCC4)CC3)cc2)n1", "melting point", "185 to 187 °C"],
  ["COCC(=O)N1CCN(CCc2ccc(-c3cccc(N)n3)cc2)CC1", "melting point", "148 to 150 °C"],
  ["Nc1cccc(-c2ccc(CCN3CCC(NC(=O)Cc4ccc(F)cc4)CC3)cc2)n1 (as salt: hydrochloride)", "melting point", "170 °C (dec.)"]
]}

**Q:** Any idea what its melting point is? The compound is Nc1cccc(-c2ccc(CCNCCCCCc3ccccc3)cc2)n1
**A:** 60 to 70 °C

**Q:** Any idea what its melting point is? The compound is Cc1ccc(NC(=O)N2CCN(CCc3ccc(-c4cccc(N)n4)cc3)CC2)cc1
**A:** 160 to 162 °C

**Q:** Any idea what its melting point is? The compound is Nc1cccc(-c2ccc(CCN3CCN(CCCc4ccccc4)CC3)cc2)n1 (as salt: hydrochloride)
**A:** 258 to 264 °C

**Q:** Any idea what its melting point is? The compound is NC(=O)CNC1C2CN(CCc3ccc(-c4cccc(N)n4)cc3)CC21 (centres unmarked)
**A:** 140 °C (dec.)

###

# maps each entry to its melting point
Where a name gives a salt, the structure may show the parent alone.

{"columns": ["compound", "melting point"],
 "data": [
  ["Nc1cccc(-c2ccc(CCN3CCN(C(=O)c4ccccc4)CC3)cc2)n1", "125 to 127 °C"],
  ["Nc1cccc(-c2ccc(CCN3Cc4ccccc4C3)cc2)n1", "140 to 143 °C"],
  ["COc1ccc(NC(=O)N2CCN(CCc3ccc(-c4cccc(N)n4)cc3)CC2)cc1", "182 to 184 °C"],
  ["Cc1cccc(NC(=O)N2CCN(CCc3ccc(-c4cccc(N)n4)cc3)CC2)c1", "88 to 94 °C"],
  ["Nc1cccc(-c2ccc(CCN(CC3CCCCC3)CC3CCCCC3)cc2)n1 (as salt: salt)", "75 to 85 °C"],
  ["Nc1cccc(-c2ccc(CCNC3C4CC5CC(C4)CC3C5)cc2)n1 (stereo not shown) (as salt: hydrochloride)", "215 to 230 °C (dec.)"]
]}

Next compound, please.
**Q:** Any idea what its melting point is? The compound is Nc1cccc(-c2ccc(CNCCc3ccccc3)cc2)n1 (as salt: hydrochloride)
**A:** 236 to 238 °C
